- TARGET_DESC: PDGF-Ra (Homo sapiens)
- Construct: host or cells: G-292 human osteosarcoma cells
- Sequence (P16234 24-1089): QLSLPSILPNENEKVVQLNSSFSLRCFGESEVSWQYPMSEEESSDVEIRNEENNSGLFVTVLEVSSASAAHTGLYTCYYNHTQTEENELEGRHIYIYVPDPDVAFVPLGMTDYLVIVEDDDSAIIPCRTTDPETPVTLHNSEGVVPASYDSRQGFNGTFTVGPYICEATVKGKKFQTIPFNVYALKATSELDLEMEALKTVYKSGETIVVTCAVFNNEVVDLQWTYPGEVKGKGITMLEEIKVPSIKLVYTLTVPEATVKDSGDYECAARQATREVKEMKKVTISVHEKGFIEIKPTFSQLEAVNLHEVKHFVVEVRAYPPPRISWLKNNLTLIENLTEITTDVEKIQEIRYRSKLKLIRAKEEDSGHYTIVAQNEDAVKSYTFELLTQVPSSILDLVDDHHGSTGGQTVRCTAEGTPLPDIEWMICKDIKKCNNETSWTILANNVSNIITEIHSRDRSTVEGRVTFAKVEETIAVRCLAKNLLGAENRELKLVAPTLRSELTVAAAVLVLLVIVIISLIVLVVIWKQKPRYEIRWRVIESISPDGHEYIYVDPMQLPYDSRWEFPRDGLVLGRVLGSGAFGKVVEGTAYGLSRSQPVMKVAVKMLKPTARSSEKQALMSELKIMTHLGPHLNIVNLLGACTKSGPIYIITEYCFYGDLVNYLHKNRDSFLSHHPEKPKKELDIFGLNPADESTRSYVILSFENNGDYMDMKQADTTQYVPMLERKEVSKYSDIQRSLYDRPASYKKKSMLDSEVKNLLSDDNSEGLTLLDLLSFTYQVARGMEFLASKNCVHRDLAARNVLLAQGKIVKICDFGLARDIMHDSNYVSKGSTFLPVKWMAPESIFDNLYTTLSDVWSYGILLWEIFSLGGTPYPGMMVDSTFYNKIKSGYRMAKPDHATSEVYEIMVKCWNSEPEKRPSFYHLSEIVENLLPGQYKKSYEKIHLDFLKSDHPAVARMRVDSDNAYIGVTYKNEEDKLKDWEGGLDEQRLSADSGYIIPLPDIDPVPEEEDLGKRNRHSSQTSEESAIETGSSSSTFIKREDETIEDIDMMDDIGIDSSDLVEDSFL
- TEST_DESCRIPTION: Inhibitory activity against PDGF-Ra phosphorylation by PDGF-AA stimulation using G292
- Assay type: cell-based
- ASSAY_CONDITIONS: G292; figure in parentheses in >100( ); at 100 nM; read-out: PDGF (E) inhibition (%) at 100 nM
EXPERIMENTAL_ENDPOINT: inhibition at 0.1 µM (%)
Expressed in %, but write only the number.

# SMILES_STRING, UNITS_TEXT, MEASURED_RESULT
measured = [
    ("COc1cc2nccc(Oc3cc(C)c(NC(=O)Oc4c(OC)cccc4OC)cc3C)c2cc1OC", "%", 49),
    ("CCCCCCCCCCCCCCCCCCOC(=O)Nc1ccc(Oc2ccnc3cc(OC)c(OC)cc23)cc1", "%", 31),
    ("COc1cc2nccc(Oc3ccc(NC(=S)NC(=O)c4ccc(C)cc4)c(Cl)c3)c2cc1OC", "%", 38),
]

Under PDGF-Ra (Homo sapiens): inhibition at 0.1 µM value of COc1cc2ncnc(Oc3ccc(NC(=O)OCCCSc4ccc(C(C)(C)C)cc4)c(Cl)c3)c2cc1OC ?
37

Now the compound COc1cc2nccc(Oc3ccc(NC(=S)NC(=O)Cc4ccccc4)c(C)c3C)c2cc1OC
31

Same read-out for CCCCCCCCCCCCCCCCCCOC(=O)Nc1cc(C)c(Oc2ccnc3cc(OC)c(OC)cc23)cc1C ?
30
